Data provenance is ChEMBL document CHEMBL1155535.

- testedOn: Inhibitor of nuclear factor kappa-B kinase subunit beta (Homo sapiens, UniProt O14920)
- Sequence (O14920 whole entry): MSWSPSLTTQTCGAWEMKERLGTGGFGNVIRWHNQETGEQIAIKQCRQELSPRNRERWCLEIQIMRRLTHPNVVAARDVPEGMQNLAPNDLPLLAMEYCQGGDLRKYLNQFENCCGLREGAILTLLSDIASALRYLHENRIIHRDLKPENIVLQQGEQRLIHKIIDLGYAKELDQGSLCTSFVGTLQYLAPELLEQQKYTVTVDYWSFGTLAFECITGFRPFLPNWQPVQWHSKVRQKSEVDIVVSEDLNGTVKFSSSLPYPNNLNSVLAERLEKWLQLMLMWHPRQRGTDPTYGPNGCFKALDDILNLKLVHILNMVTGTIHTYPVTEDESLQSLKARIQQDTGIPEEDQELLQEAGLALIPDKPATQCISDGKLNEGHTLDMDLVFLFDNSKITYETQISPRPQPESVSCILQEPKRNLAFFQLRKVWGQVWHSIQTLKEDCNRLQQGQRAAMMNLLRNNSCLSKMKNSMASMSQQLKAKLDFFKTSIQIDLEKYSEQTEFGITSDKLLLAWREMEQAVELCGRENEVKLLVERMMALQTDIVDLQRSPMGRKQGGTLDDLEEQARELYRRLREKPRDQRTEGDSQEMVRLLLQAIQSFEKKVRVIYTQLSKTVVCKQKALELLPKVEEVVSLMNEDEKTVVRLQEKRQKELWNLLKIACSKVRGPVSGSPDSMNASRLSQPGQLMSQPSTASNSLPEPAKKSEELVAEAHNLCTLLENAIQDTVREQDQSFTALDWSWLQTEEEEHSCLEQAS
- assayInfo: Inhibition of IKK-beta expressed in human HeLa cells transfected with pNFkappaB-luciferase assessed inhibition of TNF-alpha-induced NF-kappaB expression by luciferase reporter gene assay
- Type: cell-based
measure: IC50 (µM)

# count of solved cases: 3
compoundString | unitAbbrev | IC50
CN(C)CCCNS(=O)(=O)c1ccc(Nc2nccc(-c3ccsc3)n2)cc1 | µM | 1.06
NS(=O)(=O)c1ccc(Nc2ncc3c(n2)-c2ccc(NC(=O)Cc4ccsc4)cc2CC3)cc1 | µM | 0.97
CN(C)CCCNS(=O)(=O)c1ccc(Nc2ncc3c(n2)-c2ccsc2CC3)cc1 | µM | 0.62

I: COc1ccc(-c2ccnc(Nc3ccc(S(N)(=O)=O)cc3)n2)cc1
II: O=S(=O)(NCCO)c1ccc(Nc2nccc(-c3ccsc3)n2)cc1
Query: Endpoint returns whichever of I and II has the numerically higher IC50. Answer format: the label of the selected item.
Result: II
